test system: Caenorhabditis elegans N2; test: mean nematode size ln(EXT) after 48 h, plate-adjusted (DMSO control set to 6) (ln(EXT), control-adjusted); higher = larger nematodes / less growth inhibition; conditions: 200 µM; exposure time 48 h
Structures can show the parent of a compound that is named as a salt.
# mean nematode size ln(EXT) (ln) >= 5 gives criterion met, anything below gives criterion not met

Dear colleague, could you confirm whether C#CC(C)(C)NC(=O)c1cc(Cl)cc(Cl)c1 [Propyzamide] has mean nematode size ln(EXT) (ln) at or above 5?
criterion met

Dear colleague, could you confirm whether Cc1ccc(C(C)(C)C)c(O)c1 [2-tert-Butyl-5-methylphenol] has mean nematode size ln(EXT) (ln) at or above 5?
criterion not met

Dear colleague, could you confirm whether CCCCC(CC)CO (stereo unspecified) [2-Ethyl-1-hexanol] has mean nematode size ln(EXT) (ln) at or above 5?
criterion met

Dear colleague, could you confirm whether CCNP(=S)(OC)O/C(C)=C/C(=O)OC(C)C (stereo unspecified) [Propetamphos] has mean nematode size ln(EXT) (ln) at or above 5?
criterion not met

Dear colleague, could you confirm whether COP(=S)(OC)Oc1ccc([N+](=O)[O-])c(C)c1 [Fenitrothion] has mean nematode size ln(EXT) (ln) at or above 5?
criterion not met

Dear colleague, could you confirm whether CCN(CC)c1nc(C)cc(OP(=S)(OC)OC)n1 [Pirimiphos-methyl] has mean nematode size ln(EXT) (ln) at or above 5?
criterion not met

Dear colleague, could you confirm whether C=CCc1ccc(O)c(OC)c1 [Eugenol] has mean nematode size ln(EXT) (ln) at or above 5?
criterion met

Dear colleague, could you confirm whether CC(O)CN(CCN(CC(C)O)CC(C)O)CC(C)O (stereo unspecified) [N,N,N',N'-Tetrakis(2-Hydroxypropyl)ethylenediamine] has mean nematode size ln(EXT) (ln) at or above 5?
criterion met

Dear colleague, could you confirm whether O=C(O)c1nc(Cl)ccc1Cl [Clopyralid-olamine] has mean nematode size ln(EXT) (ln) at or above 5?
criterion met

Dear colleague, could you confirm whether O=C1OC(c2ccc(O)cc2)(c2ccc(O)cc2)c2ccccc21 [Phenolphthalein] has mean nematode size ln(EXT) (ln) at or above 5?
criterion met

Dear colleague, could you confirm whether Nn1cnnc1 [4-Amino-4H-1,2,4-triazole] has mean nematode size ln(EXT) (ln) at or above 5?
criterion met

Dear colleague, could you confirm whether O=c1[nH]sc2ccccc12 [1,2-Benzisothiazolin-3-one] has mean nematode size ln(EXT) (ln) at or above 5?
criterion met

Dear colleague, could you confirm whether Oc1ccc(Cl)cc1Cl [2,4-Dichlorophenol] has mean nematode size ln(EXT) (ln) at or above 5?
criterion met

Dear colleague, could you confirm whether Oc1ccc2c(c1)-c1ccccc1C2 [3-Hydroxyfluorene] has mean nematode size ln(EXT) (ln) at or above 5?
criterion not met

Dear colleague, could you confirm whether COC(=O)c1ccccc1O [Methyl salicylate] has mean nematode size ln(EXT) (ln) at or above 5?
criterion met

Dear colleague, could you confirm whether Cn1ccnc1S [Methimazole] has mean nematode size ln(EXT) (ln) at or above 5?
criterion met

Dear colleague, could you confirm whether N#Cc1c(Cl)cccc1Cl [Dichlobenil] has mean nematode size ln(EXT) (ln) at or above 5?
criterion met

Dear colleague, could you confirm whether O=C(O)c1c(Cl)ccc2cc(Cl)cnc12 [Quinclorac] has mean nematode size ln(EXT) (ln) at or above 5?
criterion met

Dear colleague, could you confirm whether COC(=O)[C@H]1[C@H]2C[C@@H]3c4[nH]c5cc(OC)ccc5c4CCN3C[C@H]2C[C@@H](OC(=O)c2cc(OC)c(OC)c(OC)c2)[C@@H]1OC [Reserpine] has mean nematode size ln(EXT) (ln) at or above 5?
criterion met

Dear colleague, could you confirm whether ClC1C(Cl)C(Cl)C(Cl)C(Cl)C1Cl (stereo not drawn) [beta-1,2,3,4,5,6-Hexachlorocyclohexane] has mean nematode size ln(EXT) (ln) at or above 5?
criterion met

Dear colleague, could you confirm whether OC(c1ccc(Cl)cc1)(c1cncnc1)c1ccccc1Cl (stereo unspecified) [Fenarimol] has mean nematode size ln(EXT) (ln) at or above 5?
criterion not met

Dear colleague, could you confirm whether OCCOc1ccccc1 [Phenoxyethanol] has mean nematode size ln(EXT) (ln) at or above 5?
criterion met

Dear colleague, could you confirm whether CCOP(=S)(OCC)Oc1nc(Cl)n(C(C)C)n1 [Isazofos] has mean nematode size ln(EXT) (ln) at or above 5?
criterion not met

Dear colleague, could you confirm whether CC(C)c1nnc2ccc(-c3ocnc3-c3cc(F)ccc3F)cn12 has mean nematode size ln(EXT) (ln) at or above 5?
criterion met

Dear colleague, could you confirm whether N=C(N)c1ccc(OCCCCCOc2ccc(C(=N)N)cc2)cc1 [Pentamidine isethionate salt] has mean nematode size ln(EXT) (ln) at or above 5?
criterion not met

Dear colleague, could you confirm whether OB(O)O [Boric acid] has mean nematode size ln(EXT) (ln) at or above 5?
criterion met

Dear colleague, could you confirm whether CSc1nnc(C(C)(C)C)c(=O)n1N [Metribuzin] has mean nematode size ln(EXT) (ln) at or above 5?
criterion met

Dear colleague, could you confirm whether Cc1ccc([N+](=O)[O-])cc1 [4-Nitrotoluene] has mean nematode size ln(EXT) (ln) at or above 5?
criterion met

Dear colleague, could you confirm whether Oc1cc(Cl)ccc1Oc1ccc(Cl)cc1Cl [Triclosan] has mean nematode size ln(EXT) (ln) at or above 5?
criterion not met

Dear colleague, could you confirm whether Nc1cccc(N)c1 [1,3-Benzenediamine] has mean nematode size ln(EXT) (ln) at or above 5?
criterion met

Dear colleague, could you confirm whether CCOCCO [2-Ethoxyethanol] has mean nematode size ln(EXT) (ln) at or above 5?
criterion met

Dear colleague, could you confirm whether CCCCCCCCOC(=O)CCCCCCCCC(=O)OCCCCCCCC [Sebacic acid di-n-octyl ester] has mean nematode size ln(EXT) (ln) at or above 5?
criterion met

Dear colleague, could you confirm whether N#Cc1cccnc1 [3-Pyridinecarbonitrile] has mean nematode size ln(EXT) (ln) at or above 5?
criterion met

Dear colleague, could you confirm whether CCCCC(CC)COC(=O)CCCCC(=O)OCC(CC)CCCC (stereo unspecified) [Di(2-ethylhexyl)adipate] has mean nematode size ln(EXT) (ln) at or above 5?
criterion met

Dear colleague, could you confirm whether CC(C)COC(=O)c1ccccc1C(=O)OCC(C)C [Diisobutyl phthalate] has mean nematode size ln(EXT) (ln) at or above 5?
criterion met

Dear colleague, could you confirm whether CCc1cnc(C2=NC(C)(C(C)C)C(=O)N2)c(C(=O)O)c1 (stereo unspecified) [Imazethapyr] has mean nematode size ln(EXT) (ln) at or above 5?
criterion met

Dear colleague, could you confirm whether N#Cc1c(Cl)c(Cl)c(Cl)c(C#N)c1Cl [Chlorothalonil] has mean nematode size ln(EXT) (ln) at or above 5?
criterion not met

Dear colleague, could you confirm whether CNC(=O)ON=C(C)SC [Methomyl] has mean nematode size ln(EXT) (ln) at or above 5?
criterion not met

Dear colleague, could you confirm whether CCCOC(=O)NCCCN(C)C [Propamocarb hydrochloride] has mean nematode size ln(EXT) (ln) at or above 5?
criterion met

====

For each of the compounds below, state its mean nematode size ln(EXT) (ln).
system: Caenorhabditis elegans N2; experiment: mean nematode size ln(EXT) after 48 h, plate-adjusted (DMSO control set to 6) (ln(EXT), control-adjusted); higher = larger nematodes / less growth inhibition; settings: 1 µM; exposure time 48 h
Please give the numeric answer without any surrounding text.

// query mean nematode size ln(EXT) (ln) value for entry Nc1c(Cl)c(F)nc(OCC(=O)O)c1Cl [Fluroxypyr]
5.62

// query mean nematode size ln(EXT) (ln) value for entry O=c1[nH]c2ccc([S+]([O-])CCN3CCC(Cc4ccc(F)cc4)CC3)cc2o1 (configuration not stated) [Besonprodil]
6

// query mean nematode size ln(EXT) (ln) value for entry CN(C)C(=O)NC1(c2ccccc2)CCN(CC[C@@]2(c3ccc(F)c(F)c3)CN(C(=O)c3ccccc3)CCO2)CC1
5.86

// query mean nematode size ln(EXT) (ln) value for entry COC(=O)c1ccccc1O [Methyl salicylate]
5.86

// query mean nematode size ln(EXT) (ln) value for entry On1ccccc1=S [Sodium (2-pyridylthio)-N-oxide]
5.86

// query mean nematode size ln(EXT) (ln) value for entry CC1=C(C(=O)Nc2ccccc2)SCCO1 [Carboxin]
5.9

// query mean nematode size ln(EXT) (ln) value for entry CC(Oc1cccc(Cl)c1)C(=O)O (configuration not stated) [Cloprop]
5.98

// query mean nematode size ln(EXT) (ln) value for entry CC(C)N1C(=O)N(c2ccccc2)CS/C1=N\C(C)(C)C [Buprofezin]
5.75

// query mean nematode size ln(EXT) (ln) value for entry CNCc1cc(F)ccc1Oc1ccc(Cl)c(Cl)c1
5.78

// query mean nematode size ln(EXT) (ln) value for entry ClC(Cl)=C(c1ccc(Cl)cc1)c1ccc(Cl)cc1 [p,p'-DDE]
5.71

// query mean nematode size ln(EXT) (ln) value for entry CN(C)C(=O)Nc1ccc(Cl)cc1 [Monuron]
6

// query mean nematode size ln(EXT) (ln) value for entry O=C(O)C(O)C(O)C(=O)O (configuration not stated) [Tartaric acid]
5.89

// query mean nematode size ln(EXT) (ln) value for entry CS/C(C)=N\OC(=O)N(C)SN(C)C(=O)O/N=C(\C)SC [Thiodicarb]
5.83

// query mean nematode size ln(EXT) (ln) value for entry O=C1c2ccccc2C(=O)N1SC(Cl)(Cl)Cl [Folpet]
5.98

// query mean nematode size ln(EXT) (ln) value for entry O=C(O)C(F)(F)C(F)(F)C(F)(F)C(F)(F)C(F)(F)C(F)(F)F [Perfluoroheptanoic acid]
5.85

// query mean nematode size ln(EXT) (ln) value for entry O=C(Nc1ccccc1)Nc1ccnc(Cl)c1 [Forchlorfenuron]
5.96

// query mean nematode size ln(EXT) (ln) value for entry CN1CCC[C@H]1c1cccnc1 [Nicotine]
5.83

// query mean nematode size ln(EXT) (ln) value for entry O=c1n(Cl)c(=O)n(Cl)c(=O)n1Cl [Symclosene]
5.76

// query mean nematode size ln(EXT) (ln) value for entry COC(=O)CCCCC(=O)OC [Dimethyl adipate]
5.88

// query mean nematode size ln(EXT) (ln) value for entry Clc1cccc(Cl)c1 [1,3-Dichlorobenzene]
5.89

// query mean nematode size ln(EXT) (ln) value for entry CC(C)(C)OOC(C)(C)CCC(C)(C)OOC(C)(C)C [2,5-Dimethyl-2,5-bis(tert-butylperoxy)hexane]
5.83

// query mean nematode size ln(EXT) (ln) value for entry Nn1cnnc1 [4-Amino-4H-1,2,4-triazole]
5.85
